Condition label: 348.2 K; Liquid; Transpiration method
Assay readout: vapor or sublimation pressure (kPa)

>>> value_reported("c1ccc(-n2ccnc2)cc1")
0.02552

A = Fc1ccc(-n2ccnc2)cc1
B = COc1ccc(-n2ccnc2)cc1
C = Brc1ccccc1-n1ccnc1
Give the ascending ranking of the items by reported vapor or sublimation pressure. List each label, following the requested order.
B, C, A
(B: 0.00215 kPa, C: 0.00534 kPa, A: 0.01727 kPa)

* * *

Condition label: 348.1 K; Liquid; Transpiration method
Assay readout: vapor or sublimation pressure (kPa)

P = Cc1ccccc1-n1ccnc1 [1-(o-tolyl)-1H-imidazole]
Q = Fc1ccccc1-n1ccnc1 [2-fluoro-phenyl-1H-imidazole]
R = Brc1ccc(-n2ccnc2)cc1 [4-bromo-phenyl-1H-imidazole]
S = COc1ccccc1-n1ccnc1 [2-methoxy-phenyl-1H-imidazole]
Please put the entries in order of rising vapor or sublimation pressure. List each label, following the requested order.
R, S, P, Q
(R: 0.00065 kPa, S: 0.00293 kPa, P: 0.01711 kPa, Q: 0.02761 kPa)
